System: SNB-19 CNS
test description: NCI tumour cell line growth inhibition, 48 h
measure name: TGI

Record excerpt, results attached:
Cc1ccc(S(=O)(=O)N2CCC2c2ccccc2)cc1 (configuration not stated): > 100 µM
O=C(O)C1C2c3ccccc3C(c3ccccc32)C1C(=O)NCC1CC1 (configuration not stated): > 100 µM
CCOC(=O)c1nnn(CCCCO)c1C(=O)OCC: 84.5 µM

API: the following record is the query input.
In: Param readout= TGI; system= SNB-19 CNS; entry= CC(C)(CN1CCCCC1)C(/C=C/c1ccc(Cl)cc1)=N\NC(=O)N/N=C(/C=C/c1ccc(Cl)cc1)C(C)(C)CN1CCCCC1 ; returns value.
Out: 16.3 µM

* * *

Entries annotated with measured TGI
System: UACC-62 melanoma
test description: NCI tumour cell line growth inhibition, 48 h

C[C@@H]1CC[C@H]2C(C)(C)[C@H]3C[C@@]12CC[C@@]3(C)O: > 100 µM
CCNC(=O)c1ccc(C)c(N=NN(C)C)c1: > 100 µM
CC(N)/C(N)=N/O (stereo not drawn): > 100 µM
CCOC(=O)c1nnn(CCCCO)c1C(=O)OCC: > 100 µM
COC1=CC(=O)C(C2(OC(C)C)OC(=O)C(Cl)=C2Cl)=CC1=O (stereo not drawn): > 100 µM

API: the following record is the query input.
In: Data request, read-out TGI, for CC(=O)N[C@@H](Cc1ccc(OP(=O)(O)O)cc1)C(=O)N[C@H]1CCC(=O)N2CCC[C@@H](C(=O)Nc3cccc4ccccc34)N2C1=O
Out: > 25 µM

* * *

System: HCT-116 colon
test description: NCI tumour cell line growth inhibition, 48 h
measure name: TGI

Record excerpt, results attached:
COC(=O)CC(C)(NS(=O)c1ccc(C)cc1)c1ccccc1 (stereo not given): > 100 µM
O=C1c2cc3c(cc2CC12Cc1ccc4c(c1C2=O)CCC4)CCCC3 (stereo not given): > 100 µM
Oc1ccc(NCn2c(=S)sc3ccccc32)cc1: > 100 µM
NCCNCCNCCN: > 100 µM

In: Data request, read-out TGI, for Cc1ccc(NC2=C3CCCCC3OC2=O)cc1 (stereo not given)
Out: > 100 µM

In: Data request, read-out TGI, for COc1ccc(C2c3cc4c(cc3OC3(OC)COC(=O)C23)OCO4)c(OC)c1 (stereo not given)
Out: > 90.7 µM

In: Data request, read-out TGI, for CCCOc1nc(N)c2cnn(C3CCCCO3)c2n1 (stereo not given)
Out: > 100 µM

In: Data request, read-out TGI, for N#C/C(N)=C(\C#N)NC=NCCO
Out: > 100 µM

In: Data request, read-out TGI, for CC1(C)[C@@H](NOCCCN)CC[C@]2(C)[C@H]3C(=O)C=C4[C@@H]5C[C@](C)(C(=O)O)CC[C@]5(C)CC[C@@]4(C)[C@]3(C)CC[C@@H]12
Out: 11.5 µM

In: Data request, read-out TGI, for O=[N+]([O-])c1cc([N+](=O)[O-])c(C(F)(F)F)cc1NN=C(c1ccc(O)cc1)c1ccc(O)cc1
Out: 11.9 µM

In: Data request, read-out TGI, for O=C1CSC(=S)N1/N=C/c1ccc(Cl)c([N+](=O)[O-])c1
Out: 48.2 µM

In: Data request, read-out TGI, for Cc1[nH]c(=O)nc2sc(=NC3CCCCC3)n(C3CCCCC3)c(=O)c12
Out: > 100 µM

In: Data request, read-out TGI, for COc1cc2c(cc1OC)C(Cl)C(c1ccc(F)cc1)=C2Cl (stereo not given)
Out: 25.6 µM

In: Data request, read-out TGI, for C=C1C(=O)O[C@H]2[C@H]1CC/C(CNC(=O)c1cc3ccccc3[nH]1)=C\CC[C@@]1(C)O[C@@H]21
Out: 2.21 µM

* * *

Tested on: LOX IMVI melanoma
test description: NCI tumour cell line growth inhibition, 48 h
measure name: TGI (µM)
The figure you give is taken to be in µM; do not add the unit.

COc1ccccc1NC(=O)c1cc2cc(Br)ccc2cc1O: 8.8
COCOC1/C=C/CCCCC(=O)C(C)C#CC1 (stereo not given): 7.36

In: Param readout= TGI; system= LOX IMVI melanoma; entry= C=C1C[C@H](O)[C@H](Br)C(C)(C)[C@@]12CCC(C)=C(Cl)C2 ; returns value.
Out: 2.07

In: Param readout= TGI; system= LOX IMVI melanoma; entry= CSC(=O)c1sc(SC)[n+](-c2ccccc2)c1O ; returns value.
Out: 44.8

* * *

System: NCI/ADR-RES ovarian
test description: NCI tumour cell line growth inhibition, 48 h; in the data active = GI50 below about 0.43 µM; inactive = the rest
Answer with one of the outcomes T (active), F (inactive)

For orientation, consider the following solved cases.
COc1cc(-c2nc3sccn3c2-c2ccnc(NCCNS(=O)(=O)c3ccc(F)cc3)n2)ccc1F: F
COc1ccc(C(c2cc(OC)c(OC)c(OC)c2)n2cncn2)cc1O (stereo unspecified): F

In: Can you look up the reported call for Cc1cc2c(cc1C)[n+](=O)c(C(=O)c1ccccc1)c(C(F)F)n2[O-] for me?
Out: F

In: Can you look up the reported call for CC[C@@H](c1ccc(O)c(O)c1)[C@@H](CC)c1ccc(O)c(O)c1 for me?
Out: F

In: Can you look up the reported call for CCOC(=O)n1cc(C2=C(c3ccc(OC)c(OC)c3)COC2=O)c2ccccc21 for me?
Out: T

In: Can you look up the reported call for COC(=O)/C=C/c1cc(OC(C)=O)c2c(c1)[C@@H](C(=O)OC)[C@H](c1ccc(OC(C)=O)c(OC(C)=O)c1)O2 for me?
Out: T

* * *

Test system: HL-60(TB) leukemia
test description: NCI tumour cell line growth inhibition, 48 h; in the data active = GI50 below about 0.43 µM; inactive = the rest
Answer with one of the outcomes active, inactive

O=[N+]([O-])c1cc([N+](=O)[O-])c(C(F)(F)F)cc1NN=C(c1ccc(O)cc1)c1ccc(O)cc1: inactive
O=C(Nc1nn2c(-c3cc(C(F)(F)F)cc(C(F)(F)F)c3)nnc2s1)C1CCCC1: active
CCCCCCOc1ccc(/C=N/Nc2cc(C)nc3ccc(Cl)cc23)cc1: inactive
COc1ccccc1NC(=O)c1cc2cc(Br)ccc2cc1O: inactive

In: Can you look up the reported call for CCCCCCCCCCSC(=N)N (tested in a mixture with another compound) for me?
Out: inactive

In: Can you look up the reported call for COC(=O)[C@]12CC[C@@H](C)[C@H](C)[C@@H]1C1=CC[C@@H]3[C@@]4(C)C[C@@H](O)[C@H](O)[C@@](C)(CO)[C@@H]4[C@H](O)C[C@@]3(C)[C@]1(C)CC2 for me?
Out: inactive

* * *

Test system: NCI/ADR-RES ovarian
test description: NCI tumour cell line growth inhibition, 48 h
measure name: TGI

COc1ccc(S(=O)(=O)n2c3c(c4ccccc42)[C@@H]2[C@@H](CCCN2C(=O)CS(=O)c2ccc(C)cc2)[C@H](Cl)C3)cc1 (stereo not given in full): > 100 µM
O=C1OCC2=C1C(c1cccc(Br)c1)c1cc3c(cc1N2CCO)OCCO3 (stereo not given): 0.273 µM
Oc1ccc(NCn2c(=S)sc3ccccc32)cc1: > 100 µM
COc1ccc2oc3c(C)cc4c(OC)nnc(OC)c4c3c2c1: > 100 µM

In: Data request, read-out TGI, for COc1cc(-c2nc3sccn3c2-c2ccnc(NCCNS(=O)(=O)c3ccc(F)cc3)n2)ccc1F
Out: > 100 µM

* * *

Tested on: NCI-H226 lung
test description: NCI tumour cell line growth inhibition, 48 h
Where a SMILES comes first, the peptide text is derived from it. The star is where a group is joined. OSu = O=C1CCC(=O)N1O*
Entries annotated with measured TGI

Record excerpt, results attached:
Cc1cn(C2OC(CO[Si](C)(C)C(C)(C)C)C(N(C)O[Si](C)(C)C(C)(C)C)C2[Se]c2ccccc2)c(=O)[nH]c1=O (stereo not drawn): 21.7 µM
CN(C)c1ccc(/C=N/NC(=S)Nc2ccccc2)cc1: > 100 µM
Clc1ccc2cccc3c2c1C1OC3c2ccccc21 (stereo not drawn): > 100 µM

In: Data request, read-out TGI, for NCCCCC(NC(=O)C(N)Cc1ccc(O)cc1)C(=O)NC(CCCCN)C(=O)NC(CCCCN)C(=O)ON1C(=O)CCC1=O (stereo not drawn) (H-YKKK-OSu; configuration not given here)
Out: > 100 µM

In: Data request, read-out TGI, for CCCOc1nc(N)c2cnn(C3CCCCO3)c2n1 (stereo not drawn)
Out: > 100 µM

* * *

System: TK-10 renal
test description: NCI tumour cell line growth inhibition, 48 h
measure name: TGI

C[C@]12c3c4cc(NC(=O)C(=O)NCc5ccc(-c6ccccn6)nc5)cc3Oc3cc(NC(=O)C(=O)NCc5ccc(-c6ccccn6)nc5)cc(c31)OC1C=C(NC(=O)C(=O)NCc3ccc(-c5ccccn5)nc3)C=C(O4)C12 (stereo partly specified): > 100 µM
CC(C)(CN1CCCCC1)C(/C=C/c1ccc(Cl)cc1)=N\NC(=O)N/N=C(/C=C/c1ccc(Cl)cc1)C(C)(C)CN1CCCCC1: 22.5 µM

In: Param readout= TGI; system= TK-10 renal; entry= CC(=O)N[C@@H](Cc1ccc(OP(=O)(O)O)cc1)C(=O)N[C@H]1CCC(=O)N2CCC[C@@H](C(=O)Nc3cccc4ccccc34)N2C1=O ; returns value.
Out: > 25 µM

In: Param readout= TGI; system= TK-10 renal; entry= O=C1C(C(Nc2ccccc2)c2ccccc2)=C([O-])c2ccccc21.O=C1C(C(Nc2ccccc2)c2ccccc2)=C([O-])c2ccccc21.[Cu+2] (stereo unspecified) ; returns value.
Out: > 100 µM

In: Param readout= TGI; system= TK-10 renal; entry= O=C(C(=O)n1ccc2ccccc21)n1ccc2ccccc21 ; returns value.
Out: > 100 µM

In: Param readout= TGI; system= TK-10 renal; entry= CCOC(=O)C1Sc2ccccc2N=C1C (stereo unspecified) ; returns value.
Out: > 100 µM
